# Tested on: 485368-065-R3-J5-PDC spheroids with HUVEC/MSC, viability
# Assay Procedure: Anticancer human tumor 485368-065-R3-J5-PDC patient-derived pancreatic carcinoma cell line growth inhibition [RAS]; active = viability on the fitted dose curve at most 10% of control; inactive = the rest
# Measurement Context: second compound 10 µM; first compound 0.316 µM
Just give me one of these, please: YES = active, NO = inactive

Compound: Nc1ccn(C2OC(CO)C(O)C2(F)F)c(=O)n1 (configuration not stated) + C#Cc1c(F)ccc2cc(O)cc(-c3ncc4c(N5CC6CCC(C5)N6)nc(OCC56CCCN5CC(F)C6)nc4c3F)c12
Cat: YES

We now examine a further compound.
q: I'd appreciate the recorded outcome for CC(=O)OC12COC1CC(O)C1(C)C(=O)C(O)C3=C(C)C(OC(=O)C(O)C(NC(=O)OC(C)(C)C)c4ccccc4)CC(O)(C(OC(=O)c4ccccc4)C21)C3(C)C (configuration not stated) + C#Cc1c(F)ccc2cc(O)cc(-c3ncc4c(N5CC6CCC(C5)N6)nc(OCC56CCCN5CC(F)C6)nc4c3F)c12 from this test.
a: NO

---

# Tested on: 485368-065-R3-J5-PDC spheroids with HUVEC/MSC, viability
# Assay Procedure: Anticancer human tumor 485368-065-R3-J5-PDC cell line growth inhibition [RAS];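 also: spheroids exposed to agents for seven days before readout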
# Measurement Context: second compound 0.00316 µM; first compound 1 µM; stronger effect = lower value
viability, T/C values for the compounds below.
Give a bare numeral; the unit % is implied.

Study these solved cases before continuing.
Compound: CC1(O)CCCC1n1c(=O)c(C(F)F)cc2cnc(NC3CCN(S(C)(=O)=O)CC3)nc21 (stereo not drawn) + C=CC(=O)N1CCN(c2nc(OCC3CCCN3C)nc3c(F)c(-c4nc(N)cc(C)c4C(F)(F)F)c(Cl)cc23)C(C)C1
Quantity Kind: viability, T/C
Units Text: %
Measured Number: 48.2

Compound: C[C@@H](NC(=O)c1ncnc(N)c1Cl)c1ncc(C(=O)Nc2cc(C(F)(F)F)c(Cl)cn2)s1 + C=CC(=O)N1CCN(c2nc(OCC3CCCN3C)nc3c(F)c(-c4nc(N)cc(C)c4C(F)(F)F)c(Cl)cc23)C(C)C1
Quantity Kind: viability, T/C
Units Text: %
Measured Number: 95

Here's the next entry for you.
q: Field: viability, T/C (485368-065-R3-J5-PDC spheroids with HUVEC/MSC, viability). Entry: CC(C)NCC(C(=O)N1CCN(c2ncnc3c2C(C)CC3O)CC1)c1ccc(Cl)cc1 (stereo not drawn) + C=CC(=O)N1CCN(c2nc(OCC3CCCN3C)nc3c(F)c(-c4nc(N)cc(C)c4C(F)(F)F)c(Cl)cc23)C(C)C1
a: 82.9

---

# Test system: 485368-065-R3-J5-PDC spheroids with HUVEC/MSC, viability
# Assay Procedure: Anticancer human tumor 485368-065-R3-J5-PDC cell line growth inhibition [RAS];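 also: spheroids exposed to agents for seven days before readout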
# Measurement Context: second compound 0.3 µM; first compound 0.1 µM; stronger effect = lower value
Quantity Kind: viability, T/C (%)
Give a bare numeral; the unit % is implied.

Study these solved cases before continuing.
Molecule: C=CC(=O)N1CCN(c2nc(OCC3CCCN3C)nc3c(F)c(-c4nc(N)cc(C)c4C(F)(F)F)c(Cl)cc23)C(C)C1 (stereo not drawn) + CCn1c(-c2cc(N3CCN(C)CC3)cnc2C(C)OC)c2c3cc(ccc31)-c1csc(n1)CC(NC(=O)C1CC1C)C(=O)N1CCCC(N1)C(=O)OCC(C)(C)C2
Quantity Kind: viability, T/C
Measured Number: 8.35
--
Molecule: CC(C)NCC(C(=O)N1CCN(c2ncnc3c2C(C)CC3O)CC1)c1ccc(Cl)cc1 (stereo not drawn) + CCn1c(-c2cccnc2C(C)OC)c2c3cc(ccc31)N1CCOC(CC(NC(=O)C(C(C)C)N(C)C(=O)C3(F)CCN(C(=O)C#CC(C)(C)N(C)C)CC3)C(=O)N3CCCC(N3)C(=O)OCC(C)(C)C2)C1
Quantity Kind: viability, T/C
Measured Number: 101

q: Field: viability, T/C (485368-065-R3-J5-PDC spheroids with HUVEC/MSC, viability). Entry: C=CC(=O)Nc1cc(Nc2nccc(-c3cn(C)c4ccccc34)n2)c(OC)cc1N(C)CCN(C)C + CCn1c(-c2cc(N3CCN(C)CC3)cnc2C(C)OC)c2c3cc(ccc31)-c1csc(n1)CC(NC(=O)C1CC1C)C(=O)N1CCCC(N1)C(=O)OCC(C)(C)C2
a: 7.51

---

# System: 485368-065-R3-J5-PDC spheroids with HUVEC/MSC, viability
# Assay Procedure: Anticancer human tumor 485368-065-R3-J5-PDC cell line growth inhibition [RAS];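 also: spheroids exposed to agents for seven days before readout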
# Measurement Context: second compound 0.316 µM; first compound 0.003 µM; stronger effect = lower value
viability, T/C values for the compounds below.

Study these solved cases before continuing.
Compound: CC1(C)CCC(Nc2ncc(C(F)(F)F)c(-c3c[nH]c4c(P(C)(C)=O)c(C#N)ccc34)n2)CN1 (centres undefined) + C#Cc1c(F)ccc2cc(O)cc(-c3ncc4c(N5CC6CCC(C5)N6)nc(OCC56CCCN5CC(F)C6)nc4c3F)c12
viability, T/C: 56.4%
--
Compound: CC1(C)CCC(Nc2ncc(C(F)(F)F)c(-c3c[nH]c4c(P(C)(C)=O)c(C#N)ccc34)n2)CN1 (centres undefined) + C=CC(=O)N1CCN(c2nc(OCC3CCCN3C)nc3c(F)c(-c4nc(N)cc(C)c4C(F)(F)F)c(Cl)cc23)C(C)C1
viability, T/C: 48.4%
--
Compound: CCc1c2c(nc3ccc(O)cc13)-c1cc3c(c(=O)n1C2)COC(=O)[C@]3(O)CC + C#Cc1c(F)ccc2cc(O)cc(-c3ncc4c(N5CC6CCC(C5)N6)nc(OCC56CCCN5CC(F)C6)nc4c3F)c12
viability, T/C: 33.4%

Here's the next entry for you.
q: Look up viability, T/C for this compound: CCc1c2c(nc3ccc(O)cc13)-c1cc3c(c(=O)n1C2)COC(=O)[C@]3(O)CC + C=CC(=O)N1CCN(c2nc(OCC3CCCN3C)nc3c(F)c(-c4nc(N)cc(C)c4C(F)(F)F)c(Cl)cc23)C(C)C1
a: 34.7%

---

viability, T/C values for the compounds below.
# Test system: 485368-065-R3-J5-PDC spheroids with HUVEC/MSC, viability
# Assay Procedure: Anticancer human tumor 485368-065-R3-J5-PDC cell line growth inhibition [RAS];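 also: spheroids exposed to agents for seven days before readout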
# Measurement Context: second compound 0.000949 µM; first compound 0.03 µM; stronger effect = lower value
Give a bare numeral; the unit % is implied.

Compound: CCc1c2c(nc3ccc(O)cc13)-c1cc3c(c(=O)n1C2)COC(=O)[C@]3(O)CC + CCn1c(-c2cc(N3CCN(C)CC3)cnc2C(C)OC)c2c3cc(ccc31)-c1csc(n1)CC(NC(=O)C1CC1C)C(=O)N1CCCC(N1)C(=O)OCC(C)(C)C2
Assay Target: 485368-065-R3-J5-PDC spheroids with HUVEC/MSC, viability
viability, T/C (%): 6.49
--
Compound: CC1(C)CCC(Nc2ncc(C(F)(F)F)c(-c3c[nH]c4c(P(C)(C)=O)c(C#N)ccc34)n2)CN1 (centres undefined) + CCn1c(-c2cc(N3CCN(C)CC3)cnc2C(C)OC)c2c3cc(ccc31)-c1csc(n1)CC(NC(=O)C1CC1C)C(=O)N1CCCC(N1)C(=O)OCC(C)(C)C2
Assay Target: 485368-065-R3-J5-PDC spheroids with HUVEC/MSC, viability
viability, T/C (%): 31
--
Compound: CC1(C)CCC(Nc2ncc(C(F)(F)F)c(-c3c[nH]c4c(P(C)(C)=O)c(C#N)ccc34)n2)CN1 (centres undefined) + CCn1c(-c2cccnc2C(C)OC)c2c3cc(ccc31)N1CCOC(CC(NC(=O)C(C(C)C)N(C)C(=O)C3(F)CCN(C(=O)C#CC(C)(C)N(C)C)CC3)C(=O)N3CCCC(N3)C(=O)OCC(C)(C)C2)C1
Assay Target: 485368-065-R3-J5-PDC spheroids with HUVEC/MSC, viability
viability, T/C (%): 47.1

Here's the next entry for you.
q: Look up viability, T/C for this compound: CCc1c2c(nc3ccc(O)cc13)-c1cc3c(c(=O)n1C2)COC(=O)[C@]3(O)CC + CCn1c(-c2cccnc2C(C)OC)c2c3cc(ccc31)N1CCOC(CC(NC(=O)C(C(C)C)N(C)C(=O)C3(F)CCN(C(=O)C#CC(C)(C)N(C)C)CC3)C(=O)N3CCCC(N3)C(=O)OCC(C)(C)C2)C1
a: 7.78

---

# Tested on: 485368-065-R3-J5-PDC spheroids with HUVEC/MSC, viability
# Assay Procedure: Anticancer human tumor 485368-065-R3-J5-PDC cell line growth inhibition [RAS];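 also: spheroids exposed to agents for seven days before readout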
# Measurement Context: curve of first compound; second compound 0.1 µM
Quantity Kind: IC50 (nM)
Give a bare numeral; the unit nM is implied.

Compound: O=C(c1ccc(F)c(F)c1Nc1ccc(I)cc1F)N1CC(O)([C@@H]2CCCCN2)C1 + C=CC(=O)N1CCN(c2nc(OCC3CCCN3C)nc3c(F)c(-c4nc(N)cc(C)c4C(F)(F)F)c(Cl)cc23)C(C)C1
Assay Target: 485368-065-R3-J5-PDC spheroids with HUVEC/MSC, viability
Units Text: nM
IC50: 29.1

Here's the next entry for you.
q: Field: IC50 (485368-065-R3-J5-PDC spheroids with HUVEC/MSC, viability). Entry: CC(Nc1ccc2c(c1)OCCn1cc(N3C(=O)OCC3C(F)F)nc1-2)C(N)=O (stereo not drawn) + C=CC(=O)N1CCN(c2nc(OCC3CCCN3C)nc3c(F)c(-c4nc(N)cc(C)c4C(F)(F)F)c(Cl)cc23)C(C)C1
a: 9800

Data origin: PubChem BioAssay AID2060902
